Give log10 IC50 for every item shown.
molecular target: EGFR L858R/T790M/C797S (Homo sapiens, UniProt P00533, C797S/L858R/T790M); experiment: Biochemical EGFR kinase inhibition assay (Lance Ultra TR-FRET), triple mutant L858R/T790M/C797S; conditions: Km ATP; read-out: IC50 L858R/T790M/C797S (nM) Km ATP
Sequence (P00533 25-1210 T790M/C797S/L858R): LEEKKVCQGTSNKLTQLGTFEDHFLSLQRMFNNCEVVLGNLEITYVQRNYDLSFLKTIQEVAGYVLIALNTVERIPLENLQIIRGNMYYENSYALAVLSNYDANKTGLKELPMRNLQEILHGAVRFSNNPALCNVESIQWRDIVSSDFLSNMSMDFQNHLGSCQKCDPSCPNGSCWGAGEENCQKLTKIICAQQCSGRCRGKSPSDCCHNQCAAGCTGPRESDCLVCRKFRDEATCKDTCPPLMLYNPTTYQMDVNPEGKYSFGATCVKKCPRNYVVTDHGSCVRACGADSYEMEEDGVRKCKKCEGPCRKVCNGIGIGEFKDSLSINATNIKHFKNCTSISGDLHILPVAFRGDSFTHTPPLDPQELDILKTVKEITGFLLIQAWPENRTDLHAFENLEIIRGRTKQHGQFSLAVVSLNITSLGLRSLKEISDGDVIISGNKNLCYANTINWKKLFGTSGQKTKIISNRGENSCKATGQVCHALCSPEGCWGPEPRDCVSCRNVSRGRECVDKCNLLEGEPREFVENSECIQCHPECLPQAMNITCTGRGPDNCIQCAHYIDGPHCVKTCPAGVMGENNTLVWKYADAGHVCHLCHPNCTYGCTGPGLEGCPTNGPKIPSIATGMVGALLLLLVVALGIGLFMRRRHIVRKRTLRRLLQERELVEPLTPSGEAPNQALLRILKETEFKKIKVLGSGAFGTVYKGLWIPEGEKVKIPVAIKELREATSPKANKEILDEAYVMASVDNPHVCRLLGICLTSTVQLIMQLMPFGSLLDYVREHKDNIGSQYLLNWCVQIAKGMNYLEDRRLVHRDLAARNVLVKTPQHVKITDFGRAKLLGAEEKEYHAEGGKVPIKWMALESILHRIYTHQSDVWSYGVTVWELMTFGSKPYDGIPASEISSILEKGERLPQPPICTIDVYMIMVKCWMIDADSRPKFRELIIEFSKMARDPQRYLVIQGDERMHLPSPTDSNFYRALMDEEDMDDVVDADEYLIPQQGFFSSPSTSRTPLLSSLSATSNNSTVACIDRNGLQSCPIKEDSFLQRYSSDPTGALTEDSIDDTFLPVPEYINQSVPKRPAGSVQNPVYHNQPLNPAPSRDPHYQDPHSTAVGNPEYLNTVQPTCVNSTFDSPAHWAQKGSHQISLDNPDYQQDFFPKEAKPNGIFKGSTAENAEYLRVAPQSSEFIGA
// do not treat as linear: log10 of IC50, unit nM

Example results:
| compound | log10 IC50 |
| --- | --- |
| CN1CCC(n2cc(C#Cc3cnc(Nc4ccnc(-c5cnn(S(=O)(=O)C6CC6)c5)n4)cc3N3CCC(C)(CO)CC3)cn2)CC1 | -1.00 |
| Cn1cc(C#Cc2cnc(Nc3ccnc(-c4cnn(S(=O)(=O)C5CC5)c4)n3)cc2N2CCCC(O)CC2)cn1 (stereo not drawn) | -0.30 |
| Cn1cc(-c2cc(Nc3ccnc(-c4cnn(S(=O)(=O)C5CC5)c4)n3)ncc2C#Cc2cnn(CCF)c2)cn1 | 1.21 |

Give log10 IC50 for each listed item.
1. Cn1cc(C#Cc2cnc(Nc3ccnc(-c4cnn(S(=O)(=O)C5CC5)c4)n3)cc2N2CCC(NCC(F)(F)F)CC2)cn1
2. CN(C)CCn1cc(C#Cc2cnc(Nc3ccnc(-c4cnn(S(=O)(=O)C5CC5)c4)n3)cc2N2CCC(F)(CO)CC2)cn1
3. Cn1cc(C#Cc2cnc(Nc3ccnc(-c4cnn(S(=O)(=O)C5CC5)c4)n3)cc2N[C@@H]2CCC[C@@H](O)C2)cn1
4. O=S(=O)(C1CC1)n1cc(-c2nccc(Nc3cc(N4CCC(F)CC4)c(C#Cc4cnn(C5CCOCC5)c4)cn3)n2)cn1
5. CC(=O)N1CCC(n2cc(C#Cc3cnc(Nc4ccnc(-c5cnn(S(=O)(=O)C6CC6)c5)n4)cc3N3CCC(F)(CO)CC3)cn2)CC1
6. CC(C)n1cc(C#Cc2cnc(Nc3ccnc(-c4cnn(S(=O)(=O)C5CC5)c4)n3)cc2-c2cnn(C3CC3)c2)cn1
7. CC(C)Nc1cc(Nc2ccnc(-c3cnn(S(=O)(=O)C4CC4)c3)n2)ncc1C#Cc1cnn(C)c1
8. CN(C)C[C@H]1CC[C@H](COc2cc(Nc3ccnc(-c4cnn(S(=O)(=O)C5CC5)c4)n3)ncc2C#Cc2cnn(CCF)c2)CC1

Response:
1. -0.22
2. -0.70
3. 0.34
4. 0.23
5. -0.30
6. 1.66
7. 0.52
8. -1.00

For every listed record, write down its log10 IC50.
1. CC(=O)N1CCC(n2cc(C#Cc3cnc(Nc4ccnc(-c5cnn(S(=O)(=O)C6CC6)c5)n4)cc3N3CCCC(CO)C3)cn2)CC1 (stereo not drawn)
2. CN(C)C[C@H]1CC[C@H](CNc2cc(Nc3ccnc(-c4cnn(S(=O)(=O)C5CC5)c4)n3)ncc2C#Cc2cnn(C)c2)CC1

Response:
1: -0.05; 2: -0.52

* * *

Task for the reader: assign each of the following molecules its reported IC50.
target: EGFR Del19/C797S (Homo sapiens, UniProt P00533, C797S/DEL746-750); assay: Biochemical EGFR kinase inhibition assay (Lance Ultra TR-FRET), double mutant del19/C797S; details: IC50 Del19/C797S (nM), 100 μM ATP
Sequence (P00533 with tags, fused parts or gaps DEL746-750/C797S): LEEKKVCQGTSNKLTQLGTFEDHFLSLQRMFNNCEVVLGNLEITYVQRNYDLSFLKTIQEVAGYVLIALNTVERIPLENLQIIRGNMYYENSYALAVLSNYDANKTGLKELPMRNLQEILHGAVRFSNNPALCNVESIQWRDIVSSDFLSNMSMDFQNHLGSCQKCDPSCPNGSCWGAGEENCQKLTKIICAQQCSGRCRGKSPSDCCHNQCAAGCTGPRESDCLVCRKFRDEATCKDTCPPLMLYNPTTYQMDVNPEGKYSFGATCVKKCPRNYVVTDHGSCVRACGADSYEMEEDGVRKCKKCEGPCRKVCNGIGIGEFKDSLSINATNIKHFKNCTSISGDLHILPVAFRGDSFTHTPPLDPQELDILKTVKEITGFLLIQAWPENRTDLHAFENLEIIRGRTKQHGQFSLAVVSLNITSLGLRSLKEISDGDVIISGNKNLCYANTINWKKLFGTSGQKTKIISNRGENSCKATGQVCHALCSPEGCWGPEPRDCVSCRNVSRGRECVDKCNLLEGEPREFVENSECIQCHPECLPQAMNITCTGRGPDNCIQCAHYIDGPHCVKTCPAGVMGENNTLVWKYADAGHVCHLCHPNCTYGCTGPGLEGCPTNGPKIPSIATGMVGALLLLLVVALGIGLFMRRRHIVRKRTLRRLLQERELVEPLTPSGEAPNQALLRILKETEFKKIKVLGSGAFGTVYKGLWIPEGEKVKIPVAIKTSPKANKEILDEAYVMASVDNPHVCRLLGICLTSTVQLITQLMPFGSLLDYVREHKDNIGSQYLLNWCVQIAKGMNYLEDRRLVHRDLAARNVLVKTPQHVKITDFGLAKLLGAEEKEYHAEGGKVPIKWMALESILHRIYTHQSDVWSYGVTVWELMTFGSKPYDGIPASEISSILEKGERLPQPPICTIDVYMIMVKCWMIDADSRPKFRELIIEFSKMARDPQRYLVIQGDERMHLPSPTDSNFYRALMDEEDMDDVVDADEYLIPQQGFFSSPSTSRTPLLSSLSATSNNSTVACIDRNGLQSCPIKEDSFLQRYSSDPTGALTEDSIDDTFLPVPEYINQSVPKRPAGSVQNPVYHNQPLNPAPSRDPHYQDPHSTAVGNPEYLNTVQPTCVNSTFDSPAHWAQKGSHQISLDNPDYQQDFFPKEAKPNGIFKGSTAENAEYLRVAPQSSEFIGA
Numbers only, in nM.

| molecule | testSystem | displayUnit | experimentalResult |
| --- | --- | --- | --- |
| Cn1cc(C#Cc2cnc(Nc3ccnc(-c4cnn(S(=O)(=O)C5CC5)c4)n3)cc2N2CC3(CCNCC3)C2)cn1 | EGFR Del19/C797S (Homo sapiens, UniProt P00533, C797S/DEL746-750) | nM | 34.3 |
| Cn1cc(C#Cc2cnc(Nc3ccnc(-c4cnn(S(=O)(=O)C5CC5)c4)n3)cc2N2CCC(O)C(C)(C)C2)cn1 (stereo not drawn) | EGFR Del19/C797S (Homo sapiens, UniProt P00533, C797S/DEL746-750) | nM | 43.8 |

Next:
The measured IC50 associated with O=S(=O)(C1CC1)n1cc(-c2nccc(Nc3cc(N4CCC(O)CC4)c(C#Cc4csc(CF)n4)cn3)n2)cn1 reads 44.8

* * *

Provide the reported IC50 of each item.
molecular target: EGFR Del19/T790M/C797S (Homo sapiens, UniProt P00533, C797S/DEL746-750/T790M); experiment: Biochemical EGFR kinase inhibition assay (Lance Ultra TR-FRET), triple mutant del19/T790M/C797S; settings: IC50 Del19/T790M/C797S (nM), 100 μM ATP
Sequence (P00533 with tags, fused parts or gaps DEL746-750/T790M/C797S): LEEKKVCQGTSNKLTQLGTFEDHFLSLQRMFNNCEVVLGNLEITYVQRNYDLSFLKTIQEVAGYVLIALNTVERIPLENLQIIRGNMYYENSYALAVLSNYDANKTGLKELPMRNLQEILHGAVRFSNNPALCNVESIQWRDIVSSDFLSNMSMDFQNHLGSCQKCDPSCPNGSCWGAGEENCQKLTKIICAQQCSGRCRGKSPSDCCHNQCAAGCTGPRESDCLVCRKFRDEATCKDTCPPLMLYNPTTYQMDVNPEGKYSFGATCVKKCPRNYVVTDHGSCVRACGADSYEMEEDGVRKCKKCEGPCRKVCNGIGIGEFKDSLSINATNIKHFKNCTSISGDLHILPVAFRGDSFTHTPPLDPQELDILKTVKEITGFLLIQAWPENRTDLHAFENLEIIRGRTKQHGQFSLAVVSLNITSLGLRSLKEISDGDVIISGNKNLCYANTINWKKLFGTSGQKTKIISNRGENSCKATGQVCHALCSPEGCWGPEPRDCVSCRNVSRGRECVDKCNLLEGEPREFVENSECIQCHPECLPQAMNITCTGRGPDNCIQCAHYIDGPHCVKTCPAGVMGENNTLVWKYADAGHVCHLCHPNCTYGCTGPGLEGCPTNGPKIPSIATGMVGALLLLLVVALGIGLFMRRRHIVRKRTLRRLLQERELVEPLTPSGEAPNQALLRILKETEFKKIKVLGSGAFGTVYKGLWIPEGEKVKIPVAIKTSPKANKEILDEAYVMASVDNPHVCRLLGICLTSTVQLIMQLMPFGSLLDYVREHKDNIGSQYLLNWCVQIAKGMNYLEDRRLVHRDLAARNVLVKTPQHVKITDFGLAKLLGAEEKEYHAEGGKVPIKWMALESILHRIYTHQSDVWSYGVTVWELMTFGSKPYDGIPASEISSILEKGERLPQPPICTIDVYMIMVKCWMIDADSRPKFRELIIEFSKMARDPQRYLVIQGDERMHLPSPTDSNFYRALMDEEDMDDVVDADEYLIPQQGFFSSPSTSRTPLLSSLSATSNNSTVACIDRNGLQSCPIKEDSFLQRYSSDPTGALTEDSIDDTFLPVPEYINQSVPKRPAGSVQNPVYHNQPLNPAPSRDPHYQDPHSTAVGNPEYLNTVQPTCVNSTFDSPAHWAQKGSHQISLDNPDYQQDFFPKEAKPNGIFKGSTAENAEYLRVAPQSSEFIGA
Numbers only, in nM.

| compound | testSystem | displayUnit | experimentalResult |
| --- | --- | --- | --- |
| CC1(C#Cc2cnc(Nc3ccnc(-c4cnn(S(=O)(=O)C5CC5)c4)n3)cc2N2CCC(C)(CO)CC2)CC1 | EGFR Del19/T790M/C797S (Homo sapiens, UniProt P00533, C797S/DEL746-750/T790M) | nM | 1.7 |
| O=S(=O)(C1CC1)n1cc(-c2nccc(Nc3cc(N4CCC5(CCCO5)CC4)c(C#Cc4ncc(CN5CCOCC5)cn4)cn3)n2)cn1 | EGFR Del19/T790M/C797S (Homo sapiens, UniProt P00533, C797S/DEL746-750/T790M) | nM | 0.5 |
| O=S(=O)(C1CC1)n1cc(-c2nccc(Nc3cc(N4CCC(CO)C4)c(C#Cc4cnn(CCF)c4)cn3)n2)cn1 (stereo not drawn) | EGFR Del19/T790M/C797S (Homo sapiens, UniProt P00533, C797S/DEL746-750/T790M) | nM | 1.8 |
| O=S(=O)(C1CC1)n1cc(-c2nccc(Nc3cc(N4CCC(NCCF)CC4)c(C#Cc4cnn(C5CCOCC5)c4)cn3)n2)cn1 | EGFR Del19/T790M/C797S (Homo sapiens, UniProt P00533, C797S/DEL746-750/T790M) | nM | 0.3 |
| CC1(CO)CCN(c2cc(Nc3ccnc(-c4cnn(S(=O)(=O)C5CC5)c4)n3)ncc2C#Cc2cnn(CC3COCCO3)c2)CC1 (stereo not drawn) | EGFR Del19/T790M/C797S (Homo sapiens, UniProt P00533, C797S/DEL746-750/T790M) | nM | 1 |

API: the following record is the query input.
Short answer for CC1(CO)CCN(c2cc(Nc3ccnc(-c4cnn(S(=O)(=O)C5CC5)c4)n3)ncc2C#Cc2cnn(C(F)F)c2)CC1 : IC50 was 1

* * *

Target: EGFR L858R/C797S (Homo sapiens, UniProt P00533, C797S/L858R)
Sequence (P00533 25-1210 C797S/L858R): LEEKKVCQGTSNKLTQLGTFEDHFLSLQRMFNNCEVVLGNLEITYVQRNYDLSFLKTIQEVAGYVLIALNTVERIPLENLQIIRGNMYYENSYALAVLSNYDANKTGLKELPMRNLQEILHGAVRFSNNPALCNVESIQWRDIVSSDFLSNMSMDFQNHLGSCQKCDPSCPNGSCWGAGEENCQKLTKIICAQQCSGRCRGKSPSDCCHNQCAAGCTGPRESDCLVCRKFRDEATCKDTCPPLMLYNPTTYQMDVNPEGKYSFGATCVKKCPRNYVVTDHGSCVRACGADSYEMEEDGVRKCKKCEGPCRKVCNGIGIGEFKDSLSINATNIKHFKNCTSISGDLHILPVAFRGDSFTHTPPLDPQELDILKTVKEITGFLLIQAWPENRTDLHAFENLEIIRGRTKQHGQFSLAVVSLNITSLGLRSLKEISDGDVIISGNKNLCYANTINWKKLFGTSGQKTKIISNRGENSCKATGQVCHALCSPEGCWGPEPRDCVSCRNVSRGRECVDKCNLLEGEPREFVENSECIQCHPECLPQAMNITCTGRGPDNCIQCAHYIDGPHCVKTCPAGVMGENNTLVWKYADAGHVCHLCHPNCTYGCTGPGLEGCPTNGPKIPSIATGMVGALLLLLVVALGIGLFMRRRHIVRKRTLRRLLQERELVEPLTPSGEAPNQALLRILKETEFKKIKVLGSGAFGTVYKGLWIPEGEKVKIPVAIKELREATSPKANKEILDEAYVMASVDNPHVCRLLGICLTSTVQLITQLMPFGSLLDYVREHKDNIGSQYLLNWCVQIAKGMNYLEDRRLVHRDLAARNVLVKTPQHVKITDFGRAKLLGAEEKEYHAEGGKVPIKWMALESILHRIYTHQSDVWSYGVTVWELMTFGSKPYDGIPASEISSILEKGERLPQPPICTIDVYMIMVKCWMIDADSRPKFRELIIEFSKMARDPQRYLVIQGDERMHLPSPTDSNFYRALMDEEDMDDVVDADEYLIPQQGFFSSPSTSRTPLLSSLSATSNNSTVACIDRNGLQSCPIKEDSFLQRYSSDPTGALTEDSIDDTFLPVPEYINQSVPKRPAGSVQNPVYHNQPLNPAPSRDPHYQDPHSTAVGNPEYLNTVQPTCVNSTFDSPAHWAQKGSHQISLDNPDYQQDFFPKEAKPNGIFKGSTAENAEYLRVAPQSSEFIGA
Test: Biochemical EGFR kinase inhibition assay (Lance Ultra TR-FRET), double mutant L858R/C797S
Settings: IC50 L858R/C797S (nM), 100 μM ATP
Protocol: Biochemical EGFR kinase assays were conducted using Lance Ultra time-resolved fluorescence resonance energy transfer (TR-FRET) technology from Perkin-Elmer. […] Each kinase reactions were incubated at room temperature for 1 hour and then stopped by the addition of 4 μL of stop solution (10 mM EDTA). […] After 60 minutes incubation at room temperature the LANCE signal was measured on an EnVision Multilabel Reader (Perkin-Elmer). […]
Lab note: anything with IC50 below 90 nM is marked TRUE; values at 90 nM or higher are marked FALSE.

Prompt: Please let me know if CN(C)CCCn1cc(C#Cc2cnc(Nc3ccnc(-c4cnn(S(=O)(=O)C5CC5)c4)n3)cc2N2CCC(F)(CO)CC2)cn1 shows IC50 below 90 nM.
Response: TRUE

Prompt: Take the compound Cn1cc(C#Cc2cnc(Nc3ccnc(-c4cnn(S(=O)(=O)C5CC5)c4)n3)cc2N2CCC3(CC2)CC(C)(O)C3)cn1 and say whether its IC50 is less than 90 nM.
Response: TRUE

Prompt: Confirm or reject: IC50 of O=S(=O)(C1CC1)n1cc(-c2nccc(Nc3cc(N[C@@H]4CCC[C@H](O)C4)c(C#Cc4cnn(CCF)c4)cn3)n2)cn1 lies strictly below 90 nM
Response: TRUE

Prompt: Is the reported IC50 for CN1CCN(Cc2ccc(C#Cc3cnc(Nc4ccnc(-c5cnn(S(=O)(=O)C6CC6)c5)n4)cc3NC[C@H]3CC[C@](C)(O)CC3)cc2)CC1 strictly below 90 nM?
Response: FALSE

Prompt: Determine if O=S(=O)(C1CC1)N1CCC(C#Cc2cnc(Nc3ccnc(-c4cnn(S(=O)(=O)C5CC5)c4)n3)cc2N[C@H]2CC[C@@H](CO)CC2)CC1 shows IC50 strictly lower than 90 nM.
Response: FALSE

Prompt: Item CC(C)(O)C1CN(c2cc(Nc3ccnc(-c4cnn(S(=O)(=O)C5CC5)c4)n3)ncc2C#Cc2cnn(CCF)c2)C1 : IC50 beneath 90 nM, strictly?
Response: FALSE

* * *

target: EGFR Del19/C797S (Homo sapiens, UniProt P00533, C797S/DEL746-750); test: Biochemical EGFR kinase inhibition assay (Lance Ultra TR-FRET), double mutant del19/C797S; details: IC50 Del19/C797S (nM), 100 μM ATP
Field: IC50. Provide a value for each of the compounds that follow.
Give bare numbers, in nM.

// solved cases for IC50 follow
| compound | testSystem | IC50 [nM] |
| --- | --- | --- |
| CN(C)C[C@H]1CC[C@@H](Nc2cc(Nc3ccnc(-c4cnn(S(=O)(=O)C5CC5)c4)n3)ncc2C#Cc2cnn(CC3CC3)c2)CC1 [Example 309] | EGFR Del19/C797S (Homo sapiens, UniProt P00533, C797S/DEL746-750) | 3.1 |
| CC1(O)CCN(c2cc(Nc3ccnc(-c4cnn(S(=O)(=O)C5CC5)c4)n3)ncc2C#CC2(F)CCOC2)CC1 (stereo not drawn) [Example 435] | EGFR Del19/C797S (Homo sapiens, UniProt P00533, C797S/DEL746-750) | 2.9 |

# evaluate next
Item: CN1CCC2(CC1)CCN(c1cc(Nc3ccnc(-c4cnn(S(=O)(=O)C5CC5)c4)n3)ncc1C#Cc1cnn(CC3CC3)c1)CC2 [Example 320] | System: EGFR Del19/C797S (Homo sapiens, UniProt P00533, C797S/DEL746-750) | IC50: 10.5
